# targetUnderTest: Vascular endothelial growth factor receptor 2 (Homo sapiens, UniProt P35968)
# Sequence (P35968 whole entry): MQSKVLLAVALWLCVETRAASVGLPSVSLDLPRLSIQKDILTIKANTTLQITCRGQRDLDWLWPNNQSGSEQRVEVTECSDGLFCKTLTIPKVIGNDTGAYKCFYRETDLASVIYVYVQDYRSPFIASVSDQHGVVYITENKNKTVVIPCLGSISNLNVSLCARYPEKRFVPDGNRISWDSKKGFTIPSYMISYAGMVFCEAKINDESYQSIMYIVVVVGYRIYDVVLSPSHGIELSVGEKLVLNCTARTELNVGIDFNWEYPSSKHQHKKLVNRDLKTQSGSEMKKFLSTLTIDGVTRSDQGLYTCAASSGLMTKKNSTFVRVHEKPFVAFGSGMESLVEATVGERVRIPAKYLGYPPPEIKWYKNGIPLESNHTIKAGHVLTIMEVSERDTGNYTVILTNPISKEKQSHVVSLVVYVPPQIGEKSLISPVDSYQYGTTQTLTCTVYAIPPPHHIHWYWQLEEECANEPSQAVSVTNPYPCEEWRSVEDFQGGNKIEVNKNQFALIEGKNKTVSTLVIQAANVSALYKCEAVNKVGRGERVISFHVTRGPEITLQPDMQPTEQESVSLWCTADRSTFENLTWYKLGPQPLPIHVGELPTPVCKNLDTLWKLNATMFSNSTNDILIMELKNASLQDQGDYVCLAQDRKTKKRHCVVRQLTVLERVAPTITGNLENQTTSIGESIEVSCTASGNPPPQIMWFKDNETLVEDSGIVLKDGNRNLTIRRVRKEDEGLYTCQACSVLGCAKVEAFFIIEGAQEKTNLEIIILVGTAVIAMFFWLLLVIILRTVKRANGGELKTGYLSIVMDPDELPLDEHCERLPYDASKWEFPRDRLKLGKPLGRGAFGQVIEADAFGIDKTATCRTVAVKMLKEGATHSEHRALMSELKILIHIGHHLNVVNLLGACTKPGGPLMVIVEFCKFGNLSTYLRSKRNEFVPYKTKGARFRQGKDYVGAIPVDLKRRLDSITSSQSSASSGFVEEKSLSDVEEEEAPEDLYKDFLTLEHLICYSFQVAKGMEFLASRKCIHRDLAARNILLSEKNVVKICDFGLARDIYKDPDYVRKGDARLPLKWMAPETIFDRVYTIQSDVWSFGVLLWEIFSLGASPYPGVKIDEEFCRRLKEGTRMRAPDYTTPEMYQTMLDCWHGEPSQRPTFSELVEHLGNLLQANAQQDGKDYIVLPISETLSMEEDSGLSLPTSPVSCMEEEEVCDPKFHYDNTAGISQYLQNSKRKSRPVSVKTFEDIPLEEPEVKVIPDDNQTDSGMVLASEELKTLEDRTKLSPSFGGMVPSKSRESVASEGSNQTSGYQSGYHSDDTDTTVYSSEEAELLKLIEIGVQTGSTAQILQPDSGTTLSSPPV
# assayMethodText: Inhibition of VEGFR2 (unknown origin) incubated for 10 mins using FAM-labeled peptide and ATP by mobility shift assay
testReadout: IC50 (nM)

molecule	unitTag	readoutValue
CNC(=O)c1cc(Oc2ccc(C3=NNC(c4ccccc4)C3)cc2)ccn1 (stereo unspecified)	nM	2300

----------
# System: HepG2
# assayMethodText: Cytotoxicity against human HepG2 cells assessed as reduction in cell viability incubated for 72 hrs by MTT assay
# Assay type: functional, cell-based
# settings: HepG2, 72 h
testReadout: IC50 (µM)

compound	unitTag	limitQualifier	readoutValue
CNC(=O)c1cc(Oc2ccc(C3=NNC(c4ccc(Cl)c(Cl)c4)C3)cc2)ccn1 (configuration not stated)	µM	=	14.4
CNC(=O)c1cc(Oc2ccc(C3=NN(C(N)=S)C(c4ccc(C#N)cc4)C3)cc2)ccn1 (configuration not stated)	µM	>	50
CNC(=O)c1cc(Oc2ccc(C3=NNC(c4cccc(Cl)c4Cl)C3)cc2)ccn1 (configuration not stated)	µM	=	4.99
CNC(=O)c1cc(Oc2ccc(C3=NNC(c4ccc(OC)c(OC)c4OC)C3)cc2)ccn1 (configuration not stated)	µM	=	15.7
CNC(=O)c1cc(Oc2ccc(C3=NN(C(N)=S)C(c4ccc(F)cc4)C3)cc2)ccn1 (configuration not stated)	µM	>	50
CNC(=O)c1cc(Oc2ccc(C3=NNC(c4ccc(OC)cc4)C3)cc2)ccn1 (configuration not stated)	µM	=	9.64
CNC(=O)c1cc(Oc2ccc(C3=NN(C(N)=S)C(c4cccc(Cl)c4Cl)C3)cc2)ccn1 (configuration not stated)	µM	=	1.89
CNC(=O)c1cc(Oc2ccc(C3=NNC(c4ccccc4)C3)cc2)ccn1 (configuration not stated)	µM	=	1.5
CNC(=O)c1cc(Oc2ccc(C3CC(c4ccc(Cl)cc4)=NN3)cc2)ccn1 (configuration not stated)	µM	=	10.9
CNC(=O)c1cc(Oc2ccc(C3=NNC(c4ccc(Br)cc4)C3)cc2)ccn1 (configuration not stated)	µM	=	57.6
CNC(=O)c1cc(Oc2ccc(C3=NNC(c4ccc(F)cc4)C3)cc2)ccn1 (configuration not stated)	µM	=	5.28
CNC(=O)c1cc(Oc2ccc(C3=NN(C(N)=S)C(c4cccc([N+](=O)[O-])c4)C3)cc2)ccn1 (configuration not stated)	µM	>	50
CNC(=O)c1cc(Oc2ccc(C3CC(c4ccc(Br)cc4)=NN3)cc2)ccn1 (configuration not stated)	µM	=	16.9
CNC(=O)c1cc(Oc2ccc(C3=NNC(c4ccc(F)cc4Cl)C3)cc2)ccn1 (configuration not stated)	µM	=	11.5
CNC(=O)c1cc(Oc2ccc(C3=NNC(c4cccc([N+](=O)[O-])c4)C3)cc2)ccn1 (configuration not stated)	µM	=	26.5
CNC(=O)c1cc(Oc2ccc(C3=NNC(c4cccc(Br)c4)C3)cc2)ccn1 (configuration not stated)	µM	=	1.85
CNC(=O)c1cc(Oc2ccc(C3CC(c4ccc([N+](=O)[O-])cc4)=NN3C(N)=S)cc2)ccn1 (configuration not stated)	µM	>	50

Numbers sourced from ChEMBL document CHEMBL4177575.
